- METHOD DESCRIPTION: log P determination by HPLC (EEC Directive 79/831 Annex V.A8)
- Assay type: physicochemical
- CONDITION PARAMETERS: log P
PROPERTY: chromatographic logP
Note: the reply should be a number with no unit written.

In the examples that follow, each entry is paired with its recorded chromatographic logP.
1. Cc1cc(C#N)cc(C(=O)NC(C)C)c1NC(=O)c1cc(Cn2nnc(C(F)(F)F)n2)nn1-c1ncccc1Cl [Example 10] | 3.07
2. Cc1cc(Cl)cc(C(=O)NC(C)(C)C)c1NC(=O)c1cc(Cn2nnnc2C(F)(F)C(F)(F)F)nn1-c1ncccc1Cl [Example 443] | 3.92
3. CNC(=O)c1cc(F)cc(C)c1NC(=O)c1cc(Cn2nnc(C(F)(F)C(F)(F)F)n2)nn1-c1ncccc1Cl [Example 147] | 3.09
4. O=C(NC1CCC1)c1cc(Cl)cc(Cl)c1NC(=O)c1cc(Cn2nnc(C(F)F)n2)nn1-c1ncccc1Cl [Example 291] | 3.06
5. Cc1cc(I)cc(C(N)=O)c1NC(=O)c1cc(Cn2nnc(C(F)(F)F)n2)nn1-c1ncccc1Cl [Example 67] | 2.95

Query chromatographic logP for CNC(=O)c1cc(C#N)cc(C)c1NC(=O)c1cc(C(C)n2nnc(C(F)(F)F)n2)nn1-c1ncccc1Cl (stereo not shown) [Example 542]
2.86

Query chromatographic logP for Cc1cc(C#N)cc(C(=O)NC(C)(C)C)c1NC(=O)c1cc(Cn2nnnc2C(F)F)nn1-c1ncccc1Cl [Example 464]
2.59
